Cited source for all entries: patent US5948791A

Reported values of IC50 for individual entries
Tested on: Plasmodium falciparum strain NF54
Test: Growth inhibition of Plasmodium falciparum NF54 (chloroquine-sensitive) in vitro, [G-3H]-hypoxanthin incorporation
Assay type: cell-based
Conditions: chloroquine-sensitive strain NF54, 72 h, read-out: IC50 for P. falciparum NF54

| Item Smiles | Experimental System | Unit Symbol | IC50 |
| --- | --- | --- | --- |
| CC(C)(CNc1ccnc2cc(Cl)ccc12)NCc1ccc(Cl)c(C(F)(F)F)c1 | Plasmodium falciparum strain NF54 | ng/mL | 24 |
| CC(C)(CNc1ccnc2cc(Cl)ccc12)NCc1cc(Cl)cc(Cl)c1.Cl.Cl | Plasmodium falciparum strain NF54 | ng/mL | 29.6 |
| COc1ccc(CNC(C)(C)CNc2ccnc3cc(Cl)ccc23)cc1OC.Cl.Cl | Plasmodium falciparum strain NF54 | ng/mL | 7.8 |
| Cl.Cl.Clc1ccc2c(N[C@H]3CC[C@H](NCCc4ccc(Cl)c(Cl)c4)CC3)ccnc2c1 | Plasmodium falciparum strain NF54 | ng/mL | 3.3 |
| Cl.Cl.O=[N+]([O-])c1cccc(Cl)c1CN[C@H]1CC[C@@H](Nc2ccnc3cc(Cl)ccc23)CC1 | Plasmodium falciparum strain NF54 | ng/mL | 11.6 |
| CC(C)(CNc1ccnc2cc(Cl)ccc12)NCc1ccc(Cl)c(F)c1.Cl.Cl | Plasmodium falciparum strain NF54 | ng/mL | 16 |
| COc1ccc(CN[C@H]2CC[C@H](Nc3ccnc4cc(Cl)ccc34)CC2)c(OC)c1.Cl.Cl | Plasmodium falciparum strain NF54 | ng/mL | 2.9 |
| COc1ccc(CN[C@H]2CC[C@@H](Nc3ccnc4cc(Cl)ccc34)CC2)c(O)c1.Cl.Cl | Plasmodium falciparum strain NF54 | ng/mL | 4.1 |
